This collection of values is drawn from PubChem BioAssay (EPA / NIEHS).

experiment: ATG_E_Box_CIS: Attagene CIS-FACTORIAL HepG2 Assay for human Enhancer Box (E-box) (AID 2282936); settings: HepG2 E-box cis-reporter transcription, actives raise or lower the signal
Activity calls are given as the source filed them. The calls were made as follows: active = hit-call score of the fitted dose curve at least 0.9, where 1 is the maximum; inactive = score below 0.9.
Hello, when you answer, please use one of the following outcomes: active, inactive

// below: answered compounds
| COMPOUND | CLASS NAME |
| --- | --- |
| CCO[Si](CCCN)(OCC)OCC | inactive |
| CC(C)n1c(/C=C/[C@@H](O)C[C@@H](O)CC(=O)O)c(-c2ccc(F)cc2)c2ccccc21 | inactive |
| O=C(O)c1nc(Cl)c(Cl)c(Cl)c1Cl | inactive |
| CCCCOC(=O)COc1ccc(Cl)cc1Cl | inactive |

Query: recorded result category for `Cc1cc2nc3c(=O)[nH]c(=O)nc-3n(C[C@H](O)[C@H](O)[C@H](O)CO)c2cc1C` in this test
inactive

Assay result, entry `COC(=O)CCSCCC(=O)OC` — outcome?
inactive

# fetch the recorded call for `CN(C)c1ccc(C(c2ccccc2)c2ccc(N(C)C)cc2)cc1` here
inactive

---

assay: ATG_ISRE_CIS: Attagene CIS-FACTORIAL HepG2 Assay for human Interferon Regulatory Factor 1 (IRF1) binding to an Interferon-Stimulated Response Element (ISRE) (AID 2282948); conditions: HepG2 ISRE cis-reporter (Attagene), mRNA transcription readout; actives raise or lower the signal
Activity calls are given as the source filed them. Rule for the calls: active = hit-call score of the fitted dose curve at least 0.9, where 1 is the maximum; inactive = score below 0.9.
Give your call using only these classes: Y (active), N (inactive)

Check out these entries, answers already filled in.
| COMPOUND | CLASS NAME |
| --- | --- |
| CCO[Si](CCCN)(OCC)OCC | N |
| COc1ccc2ccccc2c1 | N |
| CCCC(=O)OC | N |

Any idea what this test logged for COC(OC)C(C)c1ccccc1 (stereo unspecified) ?
N

Any idea what this test logged for `Nc1nnc(-c2ccc([N+](=O)[O-])o2)o1` ?
N

Tell me the assay call for CCC(C)C1N=C(C)C(C)S1 (stereo unspecified) please.
N

What did this assay record as the result for `O=C(OCc1ccccc1)c1ccccc1` ?
N

Could you please tell me the result logged for `CCCCNC(N)=O` in this assay?
N

Assay result, entry CCCCCCCCCCC1CO1 (stereo unspecified) — outcome?
N

GET /call?item= `COC(=O)/C=C\C(=O)OC` returns the recorded outcome of this test.
Y

Please let me know the test result on file for `CCc1cc(C(N)=S)ccn1` .
N

---

Experiment: TOX21_p53_BLA_p2_viability: Viability Assessment in the Tox21 HCT-116 p53 Agonism Beta-lactamase Assay, Phase 2 (AID 2283591);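 also: compound exposure lasted 16 h at 37 °C; actives lower the ATP signal meaning cytotoxicity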
From the text: TOX21_p53_BLA_p2 is a cell-based, single-readout assay that uses HCT116, a human intestinal cell line, […] in a 1536-well plate.TOX21_p53_BLA_p2_viability is an assay readout measuring cellular ATP content and detected with CellTiter-Glo Luciferase-coupled ATP quantitation.TOX21_p53_BLA_p2_viability used a type of viability reporter where loss-of-signal activity can be used to understand changes in the cell viability. […]
Inconclusive results are not listed. Calls of active or inactive are those of the source. The calls were made as follows: active = hit-call score of the fitted dose curve at least 0.9, where 1 is the maximum; inconclusive = response in the unintended direction; inactive = score below 0.9.
Lab note: assign the record to one of t = active, f = inactive

Here are 3 compounds together with their reported answers.
| COMPOUND | CLASS NAME |
| --- | --- |
| COCCCN | f |
| CC1(C)S[C@@H]2[C@H](NC(=O)[C@H](N)c3ccccc3)C(=O)N2[C@H]1C(=O)O | f |
| OCCN1C[C@H](O)[C@@H](O)[C@H](O)[C@H]1CO | f |

I'd appreciate the recorded outcome for `O=C1CCC(=O)O1` from this test.
f

Query: recorded result category for `CCC(=O)c1ccc2c(c1)N(CCCN1CCN(CCO)CC1)c1ccccc1S2` in this test
f

Outcome? `CC(=O)N[C@@H](CC(C)C)C(=O)O`
f

GET /call?item= `O=C(O)c1cccc(O)c1` returns the recorded outcome of this test.
f

Check the results log: what was the call for C=C1CC2C3CCC4=CC(=O)C=C[C@]4(C)[C@@]3(F)[C@@H](O)C[C@]2(C)[C@@]1(O)C(=O)COC(C)=O (stereo partly specified) ?
f

Which outcome did this test record for the compound `N=C(N)N` ?
f

---

assay: ATG_GLI_CIS: Attagene CIS-FACTORIAL HepG2 Assay for human Zinc Finger Protein GLI1 (AID 2282945); settings: HepG2, Attagene cis-factorial reporter mRNA, GLI element; actives raise or lower the signal
Active and inactive are the calls of the source. The calls were made as follows: active = hit-call score of the fitted dose curve at least 0.9, where 1 is the maximum; inactive = score below 0.9.
// allowed return values: class 1 for active, class 0 for inactive

Please review the following examples before continuing.
| COMPOUND | CLASS NAME |
| --- | --- |
| CCCC(=O)OC | class 0 |
| C1=CCC=C1 | class 0 |
| C=C1CC[C@H]2C[C@@H]1C2(C)C | class 0 |
| CN(C)CCC(c1ccc(Cl)cc1)c1ccccn1 (stereo not drawn) | class 0 |
| CC(C)CC(=O)O | class 0 |

Test call for this compound, please: CCC(C)C1N=C(C)C(C)S1 (stereo not drawn)
class 0

Please share the test call associated with `CC(=O)c1nccs1` .
class 0

Called result for `COCCCN`
class 0

Recorded call for C=CC(C)(CCC=C(C)C)OC(=O)c1ccccc1 (stereo not drawn) ?
class 0

// outcome(item) with item = `CC(C)(C)NC(=O)[C@@H]1CN(Cc2cccnc2)CCN1C[C@@H](O)C[C@@H](Cc1ccccc1)C(=O)N[C@H]1c2ccccc2C[C@H]1O`
class 0

I'd appreciate the recorded outcome for O=C1NC(=O)C2CC=CCC12 (stereo not drawn) from this test.
class 0

Identify the outcome logged in this assay for the compound shown: `CC(C)=CCOC(=O)c1ccccc1`
class 0

I would be grateful if you could indicate the recorded call for `Oc1ccc(Oc2ccccc2)cc1` .
class 0

---

assay: TOX21_p53_BLA_p4_viability: Viability Assessment in the Tox21 HCT-116 p53 Agonism Beta-lactamase Assay, Phase 4 (AID 2283597);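 also: hits lower the luminescence signal meaning cytotoxicity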
Inconclusive results are not listed. Activity calls are given as the source filed them. Rule for the calls: active = hit-call score of the fitted dose curve at least 0.9, where 1 is the maximum; inconclusive = response in the unintended direction; inactive = score below 0.9.

| COMPOUND | AC50 |
| --- | --- |
| Cc1c(N)cccc1[N+](=O)[O-] | inactive |
| C=C1CC[C@H](O)C/C1=C/C=C1\CCC[C@]2(C)[C@@H]([C@H](C)CCCC(C)(C)O)CC[C@@H]12 | 12.8 µM (active) |
| CC(=C(CCO)SSCC1CCCO1)N(C=O)Cc1cnc(C)nc1N (stereo not drawn) | inactive |

---

assay: TOX21_p53_BLA_p3_viability: Viability Assessment in the Tox21 HCT-116 p53 Agonism Beta-lactamase Assay, Phase 3 (AID 2283593);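 also: cells exposed to compound for 16 h before reading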
Records with an inconclusive call do not appear. The source made the active and inactive calls. Rule for the calls: active = hit-call score of the fitted dose curve at least 0.9, where 1 is the maximum; inconclusive = response in the unintended direction; inactive = score below 0.9.

| SMILES REPRESENTATION | outcome |
| --- | --- |
| N[C@@H](COP(=O)(O)O)C(=O)O | inactive |
| COc1ccc2nc(NC(=O)Nc3ccccc3)sc2c1 | inactive |
| Nc1cc(C(Cl)=C(Cl)Cl)c(S(N)(=O)=O)cc1S(N)(=O)=O | inactive |

---

target: Cellular tumor antigen p53 (Homo sapiens) (UniProt P04637); test: TOX21_p53_BLA_p3_ratio: Tox21 HCT-116 p53 Agonism Beta-lactamase Assay, Ratio, Phase 3 (AID 2283596)
Sequence (P04637 whole entry, looked up): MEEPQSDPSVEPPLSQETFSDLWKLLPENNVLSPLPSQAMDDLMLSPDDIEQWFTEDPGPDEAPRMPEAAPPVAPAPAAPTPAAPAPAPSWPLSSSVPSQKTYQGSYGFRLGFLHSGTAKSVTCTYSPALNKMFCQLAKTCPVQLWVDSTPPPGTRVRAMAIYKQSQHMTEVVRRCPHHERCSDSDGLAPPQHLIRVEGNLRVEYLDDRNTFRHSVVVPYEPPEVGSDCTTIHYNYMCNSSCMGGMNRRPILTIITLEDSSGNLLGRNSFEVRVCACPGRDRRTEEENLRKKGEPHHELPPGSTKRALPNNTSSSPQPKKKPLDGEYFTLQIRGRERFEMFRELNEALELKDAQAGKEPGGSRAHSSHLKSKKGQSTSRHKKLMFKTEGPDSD
Results filed as inconclusive are left out. The source made the active and inactive calls. Rule for the calls: active = hit-call score of the fitted dose curve at least 0.9, where 1 is the maximum; inconclusive = response in the unintended direction; inactive = score below 0.9.
The categories you may choose from are label 1 (active), label 0 (inactive)

| COMPOUND | CLASS NAME |
| --- | --- |
| Cc1c(NC(=O)c2cccnc2)c(=O)n(-c2ccccc2)n1C | label 0 |

Write down the call the test reported for this compound. Item: `CC(=O)OCC(=O)[C@@]1(O)[C@H](OC(C)=O)C[C@H]2[C@@H]3CCC4=CC(=O)C=C[C@]4(C)[C@@]3(F)[C@@H](O)C[C@@]21C`
label 0

Called result for CCCCC(CC)COCCCN (centres undefined)
label 0

What was the test verdict on CC(NNC(=O)c1ccccc1)c1ccccc1 (centres undefined) ?
label 0

---

target: Cellular tumor antigen p53 (Homo sapiens); test: TOX21_p53_BLA_p5_ratio: Tox21 HCT-116 p53 Agonism Beta-lactamase Assay, Ratio, Phase 5 (AID 2283599)
Inconclusive results are not listed. Active and inactive are the calls of the source. How the source made its calls: active means hit-call score of the fitted dose curve at least 0.9, where 1 is the maximum; inconclusive means response in the unintended direction; inactive means score below 0.9.
Return exactly one item of Y = active, N = inactive

These recorded examples may help you get a feel for the data.
| COMPOUND | CLASS NAME |
| --- | --- |
| O=C1c2c(O)ccc([N+](=O)[O-])c2C(=O)c2c([N+](=O)[O-])ccc(O)c21 | Y |
| CCO[Si](CC(C)C)(OCC)OCC | N |
| CCCCCC=CCC1CC(=O)OC1=O (stereo not given) | N |
| CCC(=O)c1c(O)cc(O)cc1O | N |
| CCCOc1ccccc1-c1nc2n[nH]nc2c(=O)[nH]1 | N |
| CN1CCN(c2c(F)cc3c(=O)c(C(=O)O)cn(CCF)c3c2F)CC1 | N |
| C[N+]1(C)CCCC(OC(=O)C(O)(c2ccccc2)c2ccccc2)C1 (stereo not given) | N |
| CC(CO)(CO)C(=O)O | N |

// outcome(item) with item = `CCCCCCCCCOC(=O)c1ccccc1C(=O)OCCCCCCCCC`
N

Per the assay record, what outcome was assigned to `O=CC(=O)c1ccccc1` ?
N
